Where these numbers come from: ChEMBL document CHEMBL1147139

Target: UniProt P00592
Sequence (P00592 23-146 limits assumed): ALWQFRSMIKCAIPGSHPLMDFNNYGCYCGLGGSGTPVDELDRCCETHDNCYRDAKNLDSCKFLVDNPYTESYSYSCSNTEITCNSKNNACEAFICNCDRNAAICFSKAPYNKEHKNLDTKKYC
Experiment: Inhibition of pig sPLA2 at 10 uM
Readings of inhibition for the listed molecules

molecule: CCCCc1ccc(C2=C(Br)C(=O)OC2O)cc1 (configuration not stated)
measurement_target: UniProt P00592
inhibition: 35.1%

Form field: reported inhibition of `CCc1c(CC(N)=O)c2cc(OCCCP(=O)(O)O)ccc2n1Cc1ccccc1`
6.8%

Form field: reported inhibition of O=C1OC(O)C(c2ccc3ccccc3c2)=C1Br (configuration not stated)
27.7%

* * *

Readings of inhibition for the listed compounds
Target: Phospholipase A2 (Apis mellifera) (UniProt P00630)
Sequence (P00630 whole entry): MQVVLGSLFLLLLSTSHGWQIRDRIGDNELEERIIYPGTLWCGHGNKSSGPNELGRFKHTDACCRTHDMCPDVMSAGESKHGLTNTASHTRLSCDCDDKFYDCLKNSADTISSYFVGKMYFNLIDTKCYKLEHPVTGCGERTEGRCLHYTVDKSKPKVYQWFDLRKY
Experiment: Inhibition of bee venom sPLA2 at 10 uM
Give the value in % but do not write % after it.

Would you please look over these solved cases?
compound: O=C1OC(O)C(c2cccc3c2Sc2ccccc2S3)=C1Br (configuration not stated)
unit_of_measurement: %
inhibition: 0

compound: CCc1c(CC(N)=O)c2cc(OCCCP(=O)(O)O)ccc2n1Cc1ccccc1
unit_of_measurement: %
inhibition: 0

compound: O=C1OC(O)C(c2ccc3ccccc3c2)=C1c1ccc2ccccc2c1 (configuration not stated)
unit_of_measurement: %
inhibition: 25.2

compound: O=C1OC(O)C(c2csc3ccccc23)=C1Br (configuration not stated)
unit_of_measurement: %
inhibition: 9.8

compound: O=C1OC(O)C(c2cccc3c2oc2ccccc23)=C1Br (configuration not stated)
unit_of_measurement: %
inhibition: 20.4

compound: O=C1OC(O)C(c2ccc3ccccc3c2)=C1Br (configuration not stated)
unit_of_measurement: %
inhibition: 14.7

Please state recorded inhibition (tested on Phospholipase A2 (Apis mellifera) (UniProt P00630)) of O=C1OC(O)C(c2ccc(Oc3ccccc3)cc2)=C1Br (configuration not stated)
2.1

Please state recorded inhibition (tested on Phospholipase A2 (Apis mellifera) (UniProt P00630)) of O=C1OC(O)C(c2cc3ccccc3s2)=C1Br (configuration not stated)
0

* * *

Biological target: Acidic phospholipase A2 2 (Naja naja)
Assay: Inhibition of Naja naja venom sPLA2 at 10 uM
Readings of inhibition for the listed molecules
Give the value in % but do not write % after it.

Would you please look over these solved cases?
molecule: O=C1OC(O)C(c2ccc(-c3ccccc3)cc2)=C1Br (configuration not stated)
inhibition, %: 7.5
//
molecule: O=C1OC(O)C(c2ccc3ccccc3c2)=C1Br (configuration not stated)
inhibition, %: 9.2
//
molecule: O=C1OC(O)C(c2cc3ccccc3s2)=C1Br (configuration not stated)
inhibition, %: 3.4
//
molecule: CC(=O)O[C@@H]1O[C@@H](C2=CC(=O)OC2O)C[C@@H]2[C@@H]1CC[C@H]1[C@@]2(C)CC[C@H]2C(C)(C)CCC[C@]12C (some centres not stated) [PETROSASPONGIOLIDE M]
inhibition, %: 5.4

Form field: reported inhibition of O=C1OC(O)C(c2cccc3c2oc2ccccc23)=C1Br (configuration not stated)
0

Form field: reported inhibition of CCCCc1ccc(C2=C(Br)C(=O)OC2O)cc1 (configuration not stated)
26

Form field: reported inhibition of O=C1OC(O)C(c2cccc3c2Sc2ccccc2S3)=C1Br (configuration not stated)
1.5

Form field: reported inhibition of O=C1OC(O)C(c2csc3ccccc23)=C1Br (configuration not stated)
15.4

Form field: reported inhibition of `CCc1c(CC(N)=O)c2cc(OCCCP(=O)(O)O)ccc2n1Cc1ccccc1`
2.7

Form field: reported inhibition of O=C1OC(O)C(c2ccc(Oc3ccccc3)cc2)=C1Br (configuration not stated)
1

Form field: reported inhibition of O=C1OC(O)C(c2ccc3ccccc3c2)=C1c1ccc2ccccc2c1 (configuration not stated)
9.1

Form field: reported inhibition of O=C1OC(O)C(c2cccc3ccccc23)=C1Br (configuration not stated)
8.6

* * *

Target: Phospholipase A2, major isoenzyme (Sus scrofa)
Test: Inhibition of pig sPLA2 at 10 uM
Please use the following inhibition ranges when assigning a class: low (below 10%), moderate (10% to below 30%), high (30% or more)

Record excerpt, results attached:
compound: O=C1OC(O)C(c2ccc3ccccc3c2)=C1c1ccc2ccccc2c1 (centres undefined)
label_class: moderate
//
compound: O=C1OC(O)C(c2csc3ccccc23)=C1Br (centres undefined)
label_class: high
//
compound: O=C1OC(O)C(c2ccc(-c3ccccc3)cc2)=C1Br (centres undefined)
label_class: moderate
//
compound: O=C1OC(O)C(c2ccc(Oc3ccccc3)cc2)=C1Br (centres undefined)
label_class: low

Exercise: read the entry CC(=O)O[C@@H]1O[C@@H](C2=CC(=O)OC2O)C[C@@H]2[C@@H]1CC[C@H]1[C@@]2(C)CC[C@H]2C(C)(C)CCC[C@]12C (some centres undefined) [PETROSASPONGIOLIDE M] and state which class it falls under.
moderate

Exercise: read the entry O=C1OC(O)C(c2cccc3c2Sc2ccccc2S3)=C1Br (centres undefined) and state which class it falls under.
low

Exercise: read the entry O=C1OC(O)C(c2cc3ccccc3s2)=C1Br (centres undefined) and state which class it falls under.
moderate

Exercise: read the entry O=C1OC(O)C(c2cccc3ccccc23)=C1Br (centres undefined) and state which class it falls under.
moderate

Exercise: read the entry O=C1OC(O)C(c2cccc3c2oc2ccccc23)=C1Br (centres undefined) and state which class it falls under.
high

* * *

Target: UniProtKB P00630
Experiment: Inhibition of bee venom sPLA2 at 10 uM
Readings of inhibition for the listed compounds
Give the value in % but do not write % after it.

compound: O=C1OC(O)C(c2ccc(-c3ccccc3)cc2)=C1Br (centres undefined)
inhibition / %: 14.4

compound: CCCCc1ccc(C2=C(Br)C(=O)OC2O)cc1 (centres undefined)
inhibition / %: 32.9

compound: O=C1OC(O)C(c2cccc3ccccc23)=C1Br (centres undefined)
inhibition / %: 0

Continue with the compound presented below.
Form field: reported inhibition of CC(=O)O[C@@H]1O[C@@H](C2=CC(=O)OC2O)C[C@@H]2[C@@H]1CC[C@H]1[C@@]2(C)CC[C@H]2C(C)(C)CCC[C@]12C (some centres undefined) [PETROSASPONGIOLIDE M]
60.8
